src = BindingDB's records for doi:10.1007/s10822-022-00478-x

System: cAMP and cAMP-inhibited cGMP 3',5'-cyclic phosphodiesterase 10A (Homo sapiens, UniProt Q9Y233)
pIC50: −log10 of the molar value.
Recorded Endpoint: pIC50

Cn1cc(S(C)(=O)=O)c(C(=O)Nc2ccc3cc(-c4ccccc4)nn3c2)n1 [Roche-Dataset for PDE10A, Compound 416]: 7.06
O=C(Nc1ccn(C2CCC2)n1)c1nc(C2CC2)ccc1Nc1cncnc1 [Roche-Dataset for PDE10A, Compound 695]: 7.68
O=C(Nc1cc(-c2ccccn2)nn1Cc1ccccc1)c1nc(C2CC2)ccc1Nc1cncnc1: 8.77
Cc1ncc(C)n2nc(/C=C/c3nc(-c4cc[nH]n4)nn3C)nc12 [Roche-Dataset for PDE10A, Compound 618]: 7.34
O=C(Nc1ccn2nc(-c3ccccc3)nc2c1)c1onc2ccccc12 [Roche-Dataset for PDE10A, Compound 420]: 6.71

I = CN(C(=O)c1cnn(C)c1C(=O)N[C@@H]1CCn2cc(-c3ccccc3)nc2C1)C1CC1 [Roche-Dataset for PDE10A, Compound 133]
II = CN(C)CCNC(=O)c1c(NC(=O)c2nc(C3CC3)cnc2Nc2cncnc2)cnn1C
Parameter check: reported pIC50 is higher for which label, I or II ? Choose, then provide that item's label.
I
